This collection of values is drawn from ChEMBL document CHEMBL3988442.

Assignment: determine reported Percent Effect for the given compounds.
# System: Tyrosyl-tRNA synthetase, putative (Trypanosoma cruzi (strain CL Brener)) (UniProt Q4DSP6)
# Sequence (Q4DSP6 as listed by the source): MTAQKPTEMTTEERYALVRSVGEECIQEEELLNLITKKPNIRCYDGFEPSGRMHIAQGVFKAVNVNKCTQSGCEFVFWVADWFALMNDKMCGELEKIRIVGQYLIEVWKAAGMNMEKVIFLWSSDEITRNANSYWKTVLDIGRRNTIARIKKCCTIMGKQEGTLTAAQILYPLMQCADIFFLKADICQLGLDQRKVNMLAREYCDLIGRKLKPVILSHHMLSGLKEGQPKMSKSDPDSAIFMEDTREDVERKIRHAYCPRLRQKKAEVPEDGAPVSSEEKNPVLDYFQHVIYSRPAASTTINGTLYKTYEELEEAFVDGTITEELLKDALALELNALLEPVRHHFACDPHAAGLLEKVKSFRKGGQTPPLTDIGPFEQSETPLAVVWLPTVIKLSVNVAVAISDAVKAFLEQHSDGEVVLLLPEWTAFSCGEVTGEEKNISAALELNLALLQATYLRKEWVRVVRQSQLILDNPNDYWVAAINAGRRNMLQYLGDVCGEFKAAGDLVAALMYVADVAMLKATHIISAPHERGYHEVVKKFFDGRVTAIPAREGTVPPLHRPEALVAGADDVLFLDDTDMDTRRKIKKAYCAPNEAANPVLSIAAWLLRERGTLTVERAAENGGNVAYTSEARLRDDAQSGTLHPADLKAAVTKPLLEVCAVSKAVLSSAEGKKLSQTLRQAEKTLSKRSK
# Method: Trypanosoma cruzi tyrosyl tRNA synthetase (TcYRS) _High Tyrosine SOP
# Assay type: functional
# Set-up: scale not given: in the data most compounds retested in dose-response had high values
# Experimental Parameters: 30 µM
Give bare numbers, in %.

Compound: CC[C@@H]1N(Cc2ccsc2)CCC[C@]12CCC(=O)N2C
Units Symbol: %
Percent Effect: -0.966

Please give Percent Effect for each item listed below.
1. Cc1ccc(NC2CCN(C(=O)c3ccc(Cl)o3)CC2)nn1
2. CC(=O)NCCc1cc(N2CCN(C(C)=O)CC2)nc(C2CC2)n1
3. COc1ccc(NC(=O)c2ccc(-n3ncc(C#N)c3N)cc2)cn1
4. Cc1cnn(CC2CCCN2CC(=O)Nc2cc(C)nn2C)c1 (stereo not given)
5. CCc1nc(C2CCCN2C(=O)c2cc(C3CC3)[nH]n2)no1 (stereo not given)
6. O=C(Nc1ccccc1)N1CCn2nnc(COc3cccnc3)c2C1
7. Cc1ccc2oc(C(=O)N3CCC(C(=O)N4CCCC4)CC3)cc2n1

[reply]
[0.49, 2.15, 4.43, 4.9, 3.68, 8.95, 9.09]

Please give Percent Effect for each item listed below.
1. CC1CCN(c2ncc3c(n2)CN(c2ccc4c(c2)OCO4)C3=O)CC1
2. CCc1nnc2n1CCN(Cc1ccc(C(=O)N3CCCC3)cc1)C2
3. CC(C)Cc1noc(CN(C)C(=O)C2COc3ccccc3C2)n1 (stereo not given)
4. Cc1ccsc1CN(C)C(=O)Cn1nc(-c2ccc(F)cc2)oc1=O

[reply]
5.38
6.93
-1.07
-8.51
